Target: T1, mouse HRt (hairless protein aa 490-1182) (Mus musculus, UniProt Q61645)
T1 construct: HR cDNA corresponding to the C-terminal half of HR protein (aa residues 490 to 1182, hereinafter HRt); expressed in transfected cells; host or cells: Saccharomyces cerevisiae PJ69-2A transformed with BD-HRt plasmid, mated with Y187 carrying the human brain cDNA library in pACT2
T1 sequence (Q61645 490-1182): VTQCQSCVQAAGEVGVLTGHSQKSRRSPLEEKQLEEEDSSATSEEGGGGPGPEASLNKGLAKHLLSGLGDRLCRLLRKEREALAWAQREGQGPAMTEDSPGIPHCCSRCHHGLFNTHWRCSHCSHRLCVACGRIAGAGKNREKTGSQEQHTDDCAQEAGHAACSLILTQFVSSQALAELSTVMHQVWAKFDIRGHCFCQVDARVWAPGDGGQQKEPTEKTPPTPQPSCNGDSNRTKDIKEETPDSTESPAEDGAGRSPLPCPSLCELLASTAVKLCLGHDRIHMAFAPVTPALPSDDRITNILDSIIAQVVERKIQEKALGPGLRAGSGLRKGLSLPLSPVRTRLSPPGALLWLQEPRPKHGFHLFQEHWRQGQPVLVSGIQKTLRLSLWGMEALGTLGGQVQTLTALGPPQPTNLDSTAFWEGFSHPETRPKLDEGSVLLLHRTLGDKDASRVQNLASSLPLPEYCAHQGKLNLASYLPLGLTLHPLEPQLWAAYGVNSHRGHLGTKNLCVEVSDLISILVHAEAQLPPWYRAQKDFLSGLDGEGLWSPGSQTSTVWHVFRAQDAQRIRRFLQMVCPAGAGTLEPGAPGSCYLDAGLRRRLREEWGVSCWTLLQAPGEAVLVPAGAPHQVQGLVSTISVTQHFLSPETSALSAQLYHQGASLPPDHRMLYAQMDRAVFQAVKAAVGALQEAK
Experiment: Yeast two-hybrid screen of BD-HRt against human brain cDNA library in AD vector, lacZ coloration on QDO-Xgal plates
Type: cell-based
Details: BD-HRt(mouse) x human brain cDNA library in AD-vector
quantity: XGAL (rate and intensity of coloration of colonies on Xgal)

INSERT INTO measurements (molecule, result) VALUES
  ('Human splicing factor (CC1.4): human HRt interacting partner, GenBank L10911, SEQ ID NO:59/60 (protein, listed as Homo sapiens) EFAAASTTAPVIIFVSKMFAVDAKALPQNKPRPLTQEEIAQRRERARQRHAEKLAAAQGQAPLEPTQDGSAIETCPKGEEPRGDEQQVESMTPKPVLQEENNQESFIAFARVFSGVARRGKKIFVLGPKYSPLEFLRRVPLGFSAPPDGLPQVPHMAYCALENLYLLMGRELEYLEEVPPGNVLGIGGLQDFVLKSATLCSLPSCPPFIPLNFEATPIVRVAVEPKHPSEMPQLVKG', 'L/VL');
